Below, each entry is listed with its recorded melting point.

{"columns": ["MOLECULE", "melting point"],
 "data": [
  ["COCC(=O)Nc1ccc(-c2noc(C(F)(F)F)n2)cc1", "93 to 94 °C"],
  ["O=C(NOCc1ccccc1F)Nc1ccc(-c2noc(C(F)(F)F)n2)cc1", "140 to 143 °C"],
  ["CONC(=O)Nc1ccc(-c2noc(C(F)(F)F)n2)cc1", "152 to 155 °C"],
  ["O=C(Nc1ccc(-c2noc(C(F)(F)F)n2)cc1)c1cn[nH]c1", "200 to 204 °C"],
  ["O=C(Nc1ccc(-c2noc(C(F)(F)F)n2)cc1)C1CCCO1 (centres unmarked)", "115 to 120 °C"]
]}

Data provenance: patent US20200022370A1
